- ASSAY INFO: Antioxidant efficiency of compounds was evaluated by the lag phase duration until onset of linoleate peroxidation induced by AAPH
EXPERIMENTAL ENDPOINT: Lag time (min)

Observe how each entry below is paired with its result.
- MOLECULE: "Oc1c(-c2ccc(-c3ccccc3)cc2)nc2cnccn12"
  OBSERVED MEASUREMENT: 77.5
- MOLECULE: "COc1ccc(-c2nc3cnccn3c2O)cc1"
  OBSERVED MEASUREMENT: 79.6
- MOLECULE: "Cc1c(C)c2c(c(C)c1O)CCC(C)(C(=O)O)O2 (centres undefined)"
  OBSERVED MEASUREMENT: 128
- MOLECULE: "Cc1nc2cnccn2c1O"
  OBSERVED MEASUREMENT: 134
- MOLECULE: "Cc1ccc(-c2nc3cnccn3c2O)cc1"
  OBSERVED MEASUREMENT: 78.7
- MOLECULE: "Oc1c(-c2ccccc2)nc2cnccn12"
  OBSERVED MEASUREMENT: 146
- MOLECULE: "Oc1c(-c2ccc(Cl)cc2)nc2cnccn12"
  OBSERVED MEASUREMENT: 111

A: Oc1c(-c2ccc3ccccc3c2)nc2cnccn12
B: Oc1c(-c2ccc(F)cc2)nc2cnccn12
Which of these two has the smaller recorded Lag time: A or B ? Choose, then provide that item's label.
A
(A: 74.9 min, B: 122 min)
